Biological target: rat mGluR5 (Rattus norvegicus, UniProt P31424)
Construct: expressed in transfected cells; host or cells: HEK (human embryonic kidney) cells
Sequence (P31424 21-1203): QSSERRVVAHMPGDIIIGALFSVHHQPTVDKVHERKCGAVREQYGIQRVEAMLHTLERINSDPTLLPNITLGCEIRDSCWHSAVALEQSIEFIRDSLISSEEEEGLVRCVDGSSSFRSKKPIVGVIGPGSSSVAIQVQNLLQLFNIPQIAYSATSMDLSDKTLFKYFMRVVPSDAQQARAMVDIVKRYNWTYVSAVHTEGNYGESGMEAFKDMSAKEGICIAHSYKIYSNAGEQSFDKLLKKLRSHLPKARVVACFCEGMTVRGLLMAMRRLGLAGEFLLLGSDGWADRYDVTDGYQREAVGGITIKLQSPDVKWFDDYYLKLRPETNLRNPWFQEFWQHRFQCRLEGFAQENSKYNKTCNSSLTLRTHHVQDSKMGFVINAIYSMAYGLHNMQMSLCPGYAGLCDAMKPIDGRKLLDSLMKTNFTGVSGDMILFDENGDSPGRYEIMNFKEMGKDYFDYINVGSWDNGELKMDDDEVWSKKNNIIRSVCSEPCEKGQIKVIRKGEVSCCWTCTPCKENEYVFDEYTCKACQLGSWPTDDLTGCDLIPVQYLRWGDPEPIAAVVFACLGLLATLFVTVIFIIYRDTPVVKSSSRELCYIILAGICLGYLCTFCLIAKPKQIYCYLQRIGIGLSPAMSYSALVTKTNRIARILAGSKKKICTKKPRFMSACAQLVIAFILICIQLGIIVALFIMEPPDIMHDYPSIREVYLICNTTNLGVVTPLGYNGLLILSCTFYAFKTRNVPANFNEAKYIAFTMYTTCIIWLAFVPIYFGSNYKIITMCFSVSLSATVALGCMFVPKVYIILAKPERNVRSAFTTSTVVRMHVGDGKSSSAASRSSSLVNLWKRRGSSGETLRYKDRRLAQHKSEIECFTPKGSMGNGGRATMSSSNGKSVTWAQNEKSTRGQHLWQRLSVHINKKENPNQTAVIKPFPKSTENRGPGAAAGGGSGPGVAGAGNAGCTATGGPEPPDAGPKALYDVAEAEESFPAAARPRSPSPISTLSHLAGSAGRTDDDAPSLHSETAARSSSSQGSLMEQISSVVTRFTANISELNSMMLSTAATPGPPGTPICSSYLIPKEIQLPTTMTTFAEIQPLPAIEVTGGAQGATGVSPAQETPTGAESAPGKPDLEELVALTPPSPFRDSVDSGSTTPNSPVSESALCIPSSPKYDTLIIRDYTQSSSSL
Assay: Potentiation of glutamate response in HEK cells transfected with rat mGluR5 (Ca2+ fluorescence, FDSS)
Type: cell-based
Conditions: S configuration enantiomer; read-out: mGluR5 potentiator EC50

{"compound": "C[C@H](NC(=O)c1ccc(COc2cccc(F)c2)nc1)C1CCCCC1 [Example 11b]", "EC50": "> 10 µM"}

* * *

Biological target: human mGluR5 (Homo sapiens, UniProt P41594)
Sequence (P41594 21-1212): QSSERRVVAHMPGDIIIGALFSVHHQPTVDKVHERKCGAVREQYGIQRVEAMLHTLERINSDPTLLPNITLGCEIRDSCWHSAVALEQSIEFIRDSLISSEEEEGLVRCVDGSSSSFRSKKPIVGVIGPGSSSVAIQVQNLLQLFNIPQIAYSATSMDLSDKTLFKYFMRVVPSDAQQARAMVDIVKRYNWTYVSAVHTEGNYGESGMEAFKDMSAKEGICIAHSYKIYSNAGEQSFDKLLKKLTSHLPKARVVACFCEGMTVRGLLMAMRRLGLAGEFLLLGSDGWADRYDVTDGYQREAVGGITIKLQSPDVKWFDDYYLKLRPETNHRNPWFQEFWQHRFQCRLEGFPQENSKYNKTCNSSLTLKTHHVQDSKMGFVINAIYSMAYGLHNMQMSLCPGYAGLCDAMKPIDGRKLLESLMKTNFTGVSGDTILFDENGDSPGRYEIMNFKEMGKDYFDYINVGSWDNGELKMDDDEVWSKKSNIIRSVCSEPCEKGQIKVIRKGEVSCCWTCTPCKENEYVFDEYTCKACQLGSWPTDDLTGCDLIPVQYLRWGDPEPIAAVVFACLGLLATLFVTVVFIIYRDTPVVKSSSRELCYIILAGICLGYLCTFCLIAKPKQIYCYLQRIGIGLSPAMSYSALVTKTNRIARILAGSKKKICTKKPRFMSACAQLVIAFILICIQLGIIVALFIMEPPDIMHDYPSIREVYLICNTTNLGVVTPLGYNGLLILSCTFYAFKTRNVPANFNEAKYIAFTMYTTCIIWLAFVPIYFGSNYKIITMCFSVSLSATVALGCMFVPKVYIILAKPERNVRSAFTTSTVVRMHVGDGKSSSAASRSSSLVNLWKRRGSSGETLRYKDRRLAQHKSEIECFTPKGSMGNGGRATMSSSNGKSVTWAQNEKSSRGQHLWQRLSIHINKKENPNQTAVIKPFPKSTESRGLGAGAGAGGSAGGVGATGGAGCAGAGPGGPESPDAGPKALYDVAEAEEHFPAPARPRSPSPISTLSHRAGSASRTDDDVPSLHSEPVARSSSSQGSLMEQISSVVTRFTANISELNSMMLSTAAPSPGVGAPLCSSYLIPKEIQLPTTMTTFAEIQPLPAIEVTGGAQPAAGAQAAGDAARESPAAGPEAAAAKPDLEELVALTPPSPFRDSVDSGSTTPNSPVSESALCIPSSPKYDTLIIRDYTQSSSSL
Test: Potentiation of glutamate response in HEK cells transfected with human mGluR5 (H10H cell line), Ca2+ fluorescence, FDSS
Conditions: read-out: hmGluR5 EC50 (H10H cell line)
experimental_readout: EC50

{"compound": "CC(NC(=O)c1ccc(COc2cccc(F)c2)nc1)c1nccs1 (centres unmarked)", "experimental_readout": "EC50", "result": "> 10 µM"}
{"compound": "CC1(CNC(=O)c2ccc(COc3cccc(F)c3)nc2)COC1", "experimental_readout": "EC50", "result": "> 10 µM"}
{"compound": "O=C(NC(c1ccc(F)cc1)C(F)(F)F)c1ccc(COc2cccc(F)c2)nc1 (centres unmarked)", "experimental_readout": "EC50", "result": "> 10 µM"}
{"compound": "Cc1cc(OCc2ccc(C(=O)N[C@H](C)C3CCCCC3)cn2)ccn1", "experimental_readout": "EC50", "result": "> 10 µM"}
{"compound": "CC(NC(=O)c1ccc(COc2cccc(F)c2)nc1)C1CCCCO1 (centres unmarked)", "experimental_readout": "EC50", "result": "1.9 µM"}

* * *

Biological target: rat mGluR5 (Rattus norvegicus, UniProt P31424)
Construct: expressed in transfected cells; host or cells: HEK (human embryonic kidney) cells
Test: Potentiation of glutamate response in HEK cells transfected with rat mGluR5 (Ca2+ fluorescence, FDSS)
Format: cell-based
Conditions: HEK cells transfected with rat mGluR5; read-out: rmGlu5 PAM EC50
Description: Human embryonic kidney (HEK) cells transfected with rat mGluR5 were plated in clear bottom assay plates for assay in a Functional Drug Screening System (FDSS). […] After establishment of a fluorescence baseline for twelve seconds, the compounds of the present invention were added to the cells, and the response in cells was measured. Five minutes later, an mGluR5 agonist (e.g., glutamate, 3,5-dihydroxyphenylglycine, or quisqualate) was added to the cells, and the response of the cells was measured. […]
pEC50: −log10 of the molar value.
experimental_readout: pEC50

{"compound": "CC(C)NC(=O)c1ccc(COc2ccccc2)nc1", "result": "< 5.00"}
{"compound": "O=C(NCCN1CCCCC1)c1ccc(COc2ccccc2)nc1", "result": "< 5.00"}
{"compound": "C[C@H](NC(=O)c1ccc(COc2ccccc2)nc1)C1CCCCC1", "result": 5.54}
{"compound": "C[C@@H](NC(=O)c1ccc(COc2cccnc2)nc1)C1CCCCC1 [drawing 109]", "result": 5.31}
{"compound": "O=C(NCCCN1CCOCC1)c1ccc(COc2ccccc2)nc1", "result": "< 5.00"}
{"compound": "O=C(Nc1ccc(Cl)cn1)c1ccc(COc2ccccc2)nc1", "result": "< 5.00"}
{"compound": "O=C(NC1(c2ccccc2)CCC1)c1ccc(COc2cccc(F)c2)nc1", "result": 6.04}
{"compound": "O=C(NC(C1CC1)C1CC1)c1ccc(COc2cccc(F)c2)nc1", "result": 5.90}
{"compound": "O=C(Nc1ccc(Cl)cc1)c1ccc(COc2ccccc2)nc1", "result": "< 5.00"}
{"compound": "O=C(NC1(c2ccccc2)CCC1)c1ccc(COc2ccccc2)nc1", "result": "< 5.00"}
{"compound": "C[C@H](NC(=O)c1ccc(COc2cccc(F)c2)nc1)C1CCCCC1 [drawing 152]", "result": "< 5.00"}
{"compound": "N#Cc1cc(F)cc(OCc2ccc(C(=O)NC3(c4ccccc4)CCC3)cn2)c1", "result": "< 5.00"}
{"compound": "C[C@@H](NC(=O)c1ccc(COc2cccc(C#N)c2)nc1)C1CCCCC1", "result": 6.66}
{"compound": "C[C@@H](NC(=O)c1ccc(COc2cc(F)cc(C#N)c2)nc1)C1CCCCC1", "result": "< 5.00"}
{"compound": "N#Cc1cc(F)cc(OCc2ccc(C(=O)NC3CCC3)cn2)c1", "result": "< 5.00"}
{"compound": "CC(C)CNC(=O)c1ccc(COc2ccccc2)nc1", "result": 5.77}
{"compound": "C[C@H](NC(=O)c1ccc(COc2cc(F)cc(C#N)c2)nc1)C1CCCCC1", "result": "< 5.00"}
{"compound": "C[C@@H](NC(=O)c1ccc(COc2cccc(F)c2)nc1)C1CCCCC1 [drawing 73]", "result": 6.77}

* * *

# EC50 values compiled below
Biological target: UniProt P41594
Experiment: Potentiation of glutamate response in HEK cells transfected with human mGluR5 (H10H cell line), Ca2+ fluorescence, FDSS
Conditions: read-out: hmGluR5 EC50 (H10H cell line)

{"molecule": "O=C(NC1(c2ccccn2)CC1)c1ccc(COc2cccc(F)c2)nc1", "EC50": "> 10 µM"}
{"molecule": "O=C(NC1CC(O)(C(F)(F)F)C1)c1ccc(COc2cccc(F)c2)nc1 (stereo not shown) [drawing 173]", "EC50": "> 10 µM"}
{"molecule": "CC(NC(=O)c1ccc(COc2cccc(F)c2)nc1)C1CCCOC1 (stereo not shown)", "EC50": "0.44 µM"}
{"molecule": "C[C@@H](N(C)C(=O)c1ccc(COc2cccc(F)c2)nc1)C(C)(C)C", "EC50": "> 10 µM"}
{"molecule": "CC1(CCNC(=O)c2ccc(COc3cccc(F)c3)nc2)COC1", "EC50": "> 10 µM"}
{"molecule": "CC1(O)CC(NC(=O)c2ccc(COc3cccc(F)c3)nc2)C1 (stereo not shown)", "EC50": "> 10 µM"}
{"molecule": "CC(NC(=O)c1ccc(COc2cccc(F)c2)nc1)C(C)(C)O (stereo not shown)", "EC50": "> 10 µM"}
{"molecule": "O=C(N[C@@H]1C[C@H]2CC[C@@H]1C2)c1ccc(COc2cccc(F)c2)nc1", "EC50": "0.17 µM"}
{"molecule": "C[C@@H](NC(=O)c1ccc(COc2cncc(C(F)(F)F)c2)nc1)C1CCCCC1", "EC50": "> 10 µM"}
{"molecule": "O=C(N[C@H]1C[C@@H]2CC[C@H]1C2)c1ccc(COc2cccc(F)c2)nc1", "EC50": "0.55 µM"}

* * *

Target: rat mGluR5 (Rattus norvegicus)
Construct: expressed in transfected cells; host or cells: HEK (human embryonic kidney) cells
Assay: Potentiation of glutamate response in HEK cells transfected with rat mGluR5 (Ca2+ fluorescence, FDSS)
Format: cell-based
Settings: HEK cells transfected with rat mGluR5; read-out: rmGlu5 PAM EC50
pEC50: −log10 of the molar value.
# pEC50 values compiled below

{"compound": "CC(C)(C)CCNC(=O)c1ccc(COc2cccc(F)c2)nc1", "qualifier_sign": "=", "pEC50": 6.52}
{"compound": "O=C(Nc1ccc(F)cn1)c1ccc(COc2ccccc2)nc1", "qualifier_sign": "=", "pEC50": 5.82}
{"compound": "C[C@@H](NC(=O)c1ccc(COc2ccccc2C#N)nc1)C1CCCCC1", "qualifier_sign": "<", "pEC50": 5.00}
{"compound": "O=C(NC12CC3CC(CC(C3)C1)C2)c1ccc(COc2ccccc2)nc1", "qualifier_sign": "=", "pEC50": 6.22}
{"compound": "CC1(C)CC(CNC(=O)c2ccc(COc3cccc(F)c3)nc2)CCO1 (stereo not drawn)", "qualifier_sign": "<", "pEC50": 5.00}
{"compound": "C[C@@H](NC(=O)c1ccc(COc2ccc(F)cc2)nc1)C1CCCCC1", "qualifier_sign": "=", "pEC50": 6.44}

* * *

Target: rat mGluR5 (Rattus norvegicus, UniProt P31424)
Construct: expressed in transfected cells; host or cells: HEK (human embryonic kidney) cells
Assay: Potentiation of glutamate response in HEK cells transfected with rat mGluR5 (Ca2+ fluorescence, FDSS)
Assay type: cell-based
Details: (R) and (S) enantiomers, Tables 3A/3B; read-out: mGluR5 EC50
experimental_readout: EC50 (nM)

{"compound": "C[C@@H](NC(=O)c1ccc(COc2cc(F)cc(F)c2)nc1)C1CCCCC1 [Example 12a]", "experimental_readout": "EC50", "qualifier_sign": "=", "numeric_readout": 309}
{"compound": "C[C@@H](NC(=O)c1ccc(COc2cccc(F)c2)nc1)C(C)(C)C [Example 13a]", "experimental_readout": "EC50", "qualifier_sign": "=", "numeric_readout": 81}
{"compound": "C[C@H](NC(=O)c1ccc(COc2cccc(F)c2)nc1)C(C)(C)C [Example 13b]", "experimental_readout": "EC50", "qualifier_sign": ">", "numeric_readout": 10000}
{"compound": "C[C@H](NC(=O)c1ccc(COc2cc(F)cc(F)c2)nc1)C1CCCCC1 [Example 12b]", "experimental_readout": "EC50", "qualifier_sign": ">", "numeric_readout": 10000}
{"compound": "C[C@H](NC(=O)c1ccc(COc2cccc(F)c2)nc1)C1CCCCC1 [Example 11b]", "experimental_readout": "EC50", "qualifier_sign": ">", "numeric_readout": 10000}
{"compound": "C[C@@H](NC(=O)c1ccc(COc2cccc(F)c2)nc1)C1CCCCC1 [Example 11a]", "experimental_readout": "EC50", "qualifier_sign": "=", "numeric_readout": 130}
